Test system: Streptococcus viridans
assay.method.text: Antibacterial activity against penicillin-susceptible Streptococcus viridans by CLSI M7-A7 broth microdilution method
Assay type: functional

molecule	subject.of.test	qualifier.symbol	MIC50 [µg/mL]
CC1(C)S[C@@H]2[C@H](NC(=O)Cc3ccccc3)C(=O)N2[C@H]1C(=O)O	Streptococcus viridans	≤	0.12
CCO/N=C(\C(=O)N[C@@H]1C(=O)N2C(C(=O)[O-])=C(Sc3nc(-c4cc[n+](C)cc4)cs3)CS[C@H]12)c1nsc(NP(=O)(O)O)n1	Streptococcus viridans	≤	0.008
CCCCCCCCCC(=O)N[C@@H](Cc1c[nH]c2ccccc12)C(=O)N[C@H](CC(N)=O)C(=O)N[C@@H](CC(=O)O)C(=O)N[C@@H]1C(=O)NCC(=O)N[C@@H](CCCN)C(=O)N[C@@H](CC(=O)O)C(=O)N[C@H](C)C(=O)N[C@@H](CC(=O)O)C(=O)NCC(=O)N[C@H](CO)C(=O)N[C@@H]([C@H](C)CC(=O)O)C(=O)N[C@@H](CC(=O)c2ccccc2N)C(=O)O[C@@H]1C	Streptococcus viridans	=	0.25
C[C@H]1COc2c(N3CCN(C)CC3)c(F)cc3c(=O)c(C(=O)O)cn1c23.C[C@H]1COc2c(N3CCN(C)CC3)c(F)cc3c(=O)c(C(=O)O)cn1c23.O	Streptococcus viridans	=	1
CC(=O)NC[C@H]1CN(c2ccc(N3CCOCC3)c(F)c2)C(=O)O1	Streptococcus viridans	=	1
C[C@@H](O)[C@H]1C(=O)N2C(C(=O)O)=C(SCCNC=N)C[C@H]12 [IMIPENEM ANHYDROUS]	Streptococcus viridans	≤	0.015
CC(C)(O/N=C(\C(=O)N[C@@H]1C(=O)N2C(C(=O)[O-])=C(C[n+]3ccccc3)CS[C@H]12)c1csc(N)n1)C(=O)O	Streptococcus viridans	≤	1
CC[C@H]1OC(=O)[C@H](C)[C@@H](O[C@H]2C[C@@](C)(OC)[C@@H](O)[C@H](C)O2)[C@H](C)[C@@H](O[C@@H]2O[C@H](C)C[C@H](N(C)C)[C@H]2O)[C@](C)(O)C[C@@H](C)C(=O)[C@H](C)[C@@H](O)[C@]1(C)O	Streptococcus viridans	=	0.06
CO/N=C(\C(=O)N[C@@H]1C(=O)N2C(C(=O)O)=C(CSc3nc(=O)c(O)nn3C)CS[C@H]12)c1csc(N)n1	Streptococcus viridans	=	0.06
CN[C@H](CC(C)C)C(=O)N[C@H]1C(=O)N[C@@H](CC(N)=O)C(=O)N[C@H]2C(=O)N[C@H]3C(=O)N[C@H](C(=O)N[C@H](C(=O)O)c4cc(O)cc(O)c4-c4cc3ccc4O)[C@H](O)c3ccc(c(Cl)c3)Oc3cc2cc(c3O[C@@H]2O[C@H](CO)[C@@H](O)[C@H](O)[C@H]2O[C@H]2C[C@](C)(N)[C@H](O)[C@H](C)O2)Oc2ccc(cc2Cl)[C@H]1O	Streptococcus viridans	=	0.5

###

Test system: Streptococcus viridans
assay.method.text: Antibacterial activity against penicillin-susceptible Streptococcus viridans by CLSI M7-A7 broth microdilution method
Format: functional
Listed here are molecules together with their documented MIC.

molecule	MIC
CCO/N=C(\C(=O)N[C@@H]1C(=O)N2C(C(=O)[O-])=C(Sc3nc(-c4cc[n+](C)cc4)cs3)CS[C@H]12)c1nsc(NP(=O)(O)O)n1	≤ 0.008 µg/mL
C[C@@H](O)[C@H]1C(=O)N2C(C(=O)O)=C(SCCNC=N)C[C@H]12 [IMIPENEM ANHYDROUS]	≤ 0.015 µg/mL
CC1(C)S[C@@H]2[C@H](NC(=O)Cc3ccccc3)C(=O)N2[C@H]1C(=O)O	≤ 0.12 µg/mL
CC(C)(O/N=C(\C(=O)N[C@@H]1C(=O)N2C(C(=O)[O-])=C(C[n+]3ccccc3)CS[C@H]12)c1csc(N)n1)C(=O)O	≤ 1 µg/mL

###

System: Streptococcus agalactiae
assay.method.text: Antibacterial activity against erythromycin-nonsusceptible Streptococcus agalactiae by CLSI M7-A7 broth microdilution method
Assay type: functional
Recorded MIC50 values for a group of molecules are listed next.
measurement.kind: MIC50 (µg/mL)

molecule	measurement.kind	qualifier.symbol	number
CCCCCCCCCC(=O)N[C@@H](Cc1c[nH]c2ccccc12)C(=O)N[C@H](CC(N)=O)C(=O)N[C@@H](CC(=O)O)C(=O)N[C@@H]1C(=O)NCC(=O)N[C@@H](CCCN)C(=O)N[C@@H](CC(=O)O)C(=O)N[C@H](C)C(=O)N[C@@H](CC(=O)O)C(=O)NCC(=O)N[C@H](CO)C(=O)N[C@@H]([C@H](C)CC(=O)O)C(=O)N[C@@H](CC(=O)c2ccccc2N)C(=O)O[C@@H]1C	MIC50	=	0.12
CC1(C)S[C@@H]2[C@H](NC(=O)Cc3ccccc3)C(=O)N2[C@H]1C(=O)O [PENICILLIN G]	MIC50	≤	0.12
CC[C@H]1OC(=O)[C@H](C)[C@@H](O[C@H]2C[C@@](C)(OC)[C@@H](O)[C@H](C)O2)[C@H](C)[C@@H](O[C@@H]2O[C@H](C)C[C@H](N(C)C)[C@H]2O)[C@](C)(O)C[C@@H](C)C(=O)[C@H](C)[C@@H](O)[C@]1(C)O [ERYTHROMYCIN]	MIC50	=	16
CC(=O)NC[C@H]1CN(c2ccc(N3CCOCC3)c(F)c2)C(=O)O1 [LINEZOLID]	MIC50	=	1
C[C@H]1COc2c(N3CCN(C)CC3)c(F)cc3c(=O)c(C(=O)O)cn1c23.C[C@H]1COc2c(N3CCN(C)CC3)c(F)cc3c(=O)c(C(=O)O)cn1c23.O [LEVOFLOXACIN]	MIC50	=	1
C[C@@H](O)[C@H]1C(=O)N2C(C(=O)O)=C(SCCNC=N)C[C@H]12 [IMIPENEM ANHYDROUS]	MIC50	≤	0.015

###

System: Enterococcus faecalis
assay.method.text: Antibacterial activity against vancomycin-resistant Enterococcus faecalis by CLSI M7-A7 broth microdilution method
Format: functional
measurement.kind: MIC50 (µg/mL)

compound	subject.of.test	qualifier.symbol	number
C[C@H]1COc2c(N3CCN(C)CC3)c(F)cc3c(=O)c(C(=O)O)cn1c23.C[C@H]1COc2c(N3CCN(C)CC3)c(F)cc3c(=O)c(C(=O)O)cn1c23.O	Enterococcus faecalis	>	16
CC1(C)S[C@@H]2[C@H](NC(=O)Cc3ccccc3)C(=O)N2[C@H]1C(=O)O	Enterococcus faecalis	=	2
CC(C)(O/N=C(\C(=O)N[C@@H]1C(=O)N2C(C(=O)[O-])=C(C[n+]3ccccc3)CS[C@H]12)c1csc(N)n1)C(=O)O	Enterococcus faecalis	>	32
Cc1onc(-c2ccccc2)c1C(=O)N[C@@H]1C(=O)N2[C@@H]1SC(C)(C)[C@@H]2C(=O)O	Enterococcus faecalis	>	8
C[C@@H](O)[C@H]1C(=O)N2C(C(=O)O)=C(SCCNC=N)C[C@H]12 [IMIPENEM ANHYDROUS]	Enterococcus faecalis	=	1
CN[C@H](CC(C)C)C(=O)N[C@H]1C(=O)N[C@@H](CC(N)=O)C(=O)N[C@H]2C(=O)N[C@H]3C(=O)N[C@H](C(=O)N[C@H](C(=O)O)c4cc(O)cc(O)c4-c4cc3ccc4O)[C@H](O)c3ccc(c(Cl)c3)Oc3cc2cc(c3O[C@@H]2O[C@H](CO)[C@@H](O)[C@H](O)[C@H]2O[C@H]2C[C@](C)(N)[C@H](O)[C@H](C)O2)Oc2ccc(cc2Cl)[C@H]1O	Enterococcus faecalis	>	16
CCCCCCCCCC(=O)N[C@@H](Cc1c[nH]c2ccccc12)C(=O)N[C@H](CC(N)=O)C(=O)N[C@@H](CC(=O)O)C(=O)N[C@@H]1C(=O)NCC(=O)N[C@@H](CCCN)C(=O)N[C@@H](CC(=O)O)C(=O)N[C@H](C)C(=O)N[C@@H](CC(=O)O)C(=O)NCC(=O)N[C@H](CO)C(=O)N[C@@H]([C@H](C)CC(=O)O)C(=O)N[C@@H](CC(=O)c2ccccc2N)C(=O)O[C@@H]1C	Enterococcus faecalis	=	0.5
CCO/N=C(\C(=O)N[C@@H]1C(=O)N2C(C(=O)[O-])=C(Sc3nc(-c4cc[n+](C)cc4)cs3)CS[C@H]12)c1nsc(NP(=O)(O)O)n1	Enterococcus faecalis	=	4
CC(=O)NC[C@H]1CN(c2ccc(N3CCOCC3)c(F)c2)C(=O)O1	Enterococcus faecalis	=	2

###

Measured MIC90, listed per entry.
System: Enterobacter cloacae
assay.method.text: Antibacterial activity against ceftazidime-nonsusceptible Enterobacter cloacae by CLSI M7-A7 broth microdilution method
Format: functional

compound	MIC90
C[C@H]1COc2c(N3CCN(C)CC3)c(F)cc3c(=O)c(C(=O)O)cn1c23.C[C@H]1COc2c(N3CCN(C)CC3)c(F)cc3c(=O)c(C(=O)O)cn1c23.O [LEVOFLOXACIN]	1 µg/mL
CO/N=C(\C(=O)N[C@@H]1C(=O)N2C(C(=O)O)=C(CSc3nc(=O)c(O)nn3C)CS[C@H]12)c1csc(N)n1 [CEFTRIAXONE]	> 16 µg/mL
CCN1CCN(C(=O)N[C@@H](C(=O)N[C@@H]2C(=O)N3[C@@H]2SC(C)(C)[C@@H]3C(=O)O)c2ccccc2)C(=O)C1=O [PIPERACILLIN]	> 64 µg/mL
C[C@@H](O)[C@H]1C(=O)N2C(C(=O)O)=C(SCCNC=N)C[C@H]12 [IMIPENEM ANHYDROUS]	0.25 µg/mL
CC1(C)S[C@@H]2[C@H](NC(=O)[C@H](N)c3ccccc3)C(=O)N2[C@H]1C(=O)O [AMPICILLIN]	> 16 µg/mL
CC(C)(O/N=C(\C(=O)N[C@@H]1C(=O)N2C(C(=O)[O-])=C(C[n+]3ccccc3)CS[C@H]12)c1csc(N)n1)C(=O)O [CEFTAZIDIME]	> 32 µg/mL
CCO/N=C(\C(=O)N[C@@H]1C(=O)N2C(C(=O)[O-])=C(Sc3nc(-c4cc[n+](C)cc4)cs3)CS[C@H]12)c1nsc(NP(=O)(O)O)n1 [CEFTAROLINE FOSAMIL]	> 16 µg/mL
